assay method text: Growth inhibition of human NHEK cells at 0.1 uM incubated for 24 hrs by CCK8 assay
Assay type: tissue-based
stated conditions: read-out: GI
endpoint name: inhibition at 24 h, 0.1 µM (%)
Write it as a number; the unit % goes unstated.

(Q) Give the value of inhibition at 24 h, 0.1 µM reported for the following: CN1CCCNC(=O)CC2(CCCCC2)CC(=O)NCCCN(C)CCCN2C(=O)c3ccc4c5c(ccc(c35)C2=O)C(=O)N(CCC1)C4=O
(A) 40

====

So I've got a bunch of compounds here, and I need their deltaG values.
Tested on: Quadruplex DNA
assay method text: Binding affinity to TA-core G4 DNA 5'-TAGGGTTAGGGTTAGGGTTAGGG-3' (unknown origin) assessed as Gibbs free energy change measured under dilution conditions by isothermal titration calorimetry
Type: nucleic-acid assay
stated conditions: Homo sapiens
Report the figure in kcal/mol without appending any unit label.

(Q) Report deltaG under test system Quadruplex DNA for CN1CCCNC(=O)c2cccc(c2)C(=O)NCCCN(C)CCCN2C(=O)c3ccc4c5c(ccc(c35)C2=O)C(=O)N(CCC1)C4=O .
(A) -8.6

(Q) // fetch deltaG for CN1CCCNC(=O)CC(C)(C)CC(=O)NCCCN(C)CCCN2C(=O)c3ccc4c5c(ccc(c35)C2=O)C(=O)N(CCC1)C4=O ; system: Quadruplex DNA
(A) -8.5

(Q) Give Quadruplex DNA deltaG for the following compound: CN1CCCNC(=O)CC2(CCCCC2)CC(=O)NCCCN(C)CCCN2C(=O)c3ccc4c5c(ccc(c35)C2=O)C(=O)N(CCC1)C4=O
(A) -8.6

(Q) Look up and report deltaG, with Quadruplex DNA as system, for CN1CCCNC(=O)CCCC(=O)NCCCN(C)CCCN2C(=O)c3ccc4c5c(ccc(c35)C2=O)C(=O)N(CCC1)C4=O
(A) -8.9

====

System: Quadruplex DNA
assay method text: Binding affinity to c-myc G4 DNA 5'-TGAGGGTGGGGAGGGTGGGGAA-3' (unknown origin) assessed as change in entropy measured under molecular crowding conditions by isothermal titration calorimetry
Format: nucleic-acid assay
stated conditions: Homo sapiens
endpoint name: -TdeltaS (kcal/mol)
Give just the numeric value; kcal/mol need not be written.

(Q) Fill in reported -TdeltaS for this entry: CN1CCCNC(=O)CC(C)(C)CC(=O)NCCCN(C)CCCN2C(=O)c3ccc4c5c(ccc(c35)C2=O)C(=O)N(CCC1)C4=O
(A) 41

(Q) Give -TdeltaS for the following compound: CN1CCCNC(=O)CC2(CCCCC2)CC(=O)NCCCN(C)CCCN2C(=O)c3ccc4c5c(ccc(c35)C2=O)C(=O)N(CCC1)C4=O
(A) 12

(Q) Supply measured -TdeltaS of CN1CCCNC(=O)CCCC(=O)NCCCN(C)CCCN2C(=O)c3ccc4c5c(ccc(c35)C2=O)C(=O)N(CCC1)C4=O in your reply.
(A) 12

(Q) Output measured -TdeltaS for this item: CN1CCCNC(=O)c2cccc(c2)C(=O)NCCCN(C)CCCN2C(=O)c3ccc4c5c(ccc(c35)C2=O)C(=O)N(CCC1)C4=O
(A) 45

====

Field: deltaG. Provide a value for each of the molecules that follow.
Test system: Quadruplex DNA
assay method text: Binding affinity to c-myc G4 DNA 5'-TGAGGGTGGGGAGGGTGGGGAA-3' (unknown origin) assessed as Gibbs free energy change measured under dilution conditions by isothermal titration calorimetry
Format: nucleic-acid assay
stated conditions: Homo sapiens
Report as a plain number; the unit kcal/mol is understood.

(Q) Look up and report measured deltaG for this entry: CN1CCCNC(=O)c2cccc(c2)C(=O)NCCCN(C)CCCN2C(=O)c3ccc4c5c(ccc(c35)C2=O)C(=O)N(CCC1)C4=O
(A) -8.7

(Q) Please give measured deltaG of the following entry: CN1CCCNC(=O)CC(C)(C)CC(=O)NCCCN(C)CCCN2C(=O)c3ccc4c5c(ccc(c35)C2=O)C(=O)N(CCC1)C4=O
(A) -8.7

(Q) # return recorded deltaG for input CN1CCCNC(=O)CCCC(=O)NCCCN(C)CCCN2C(=O)c3ccc4c5c(ccc(c35)C2=O)C(=O)N(CCC1)C4=O
(A) -8.1

(Q) Give deltaG for the following molecule: CN1CCCNC(=O)CC2(CCCCC2)CC(=O)NCCCN(C)CCCN2C(=O)c3ccc4c5c(ccc(c35)C2=O)C(=O)N(CCC1)C4=O
(A) -9.3

// provenance: ChEMBL document CHEMBL4808234
